Cited source for all entries: patent US4377587A

test: Volatility: evaporation half-life T50 in an evaporating tube; format: physicochemical; conditions: 50° C., stream of air of 20 m/h, relative to T50 of Metalaxyl
Field: Multiple of Metalaxyl T50 (evaporation half-life). Provide a value for each of the compounds that follow.
Numbers only, in ×.

COCC(=O)N(c1c(C)cccc1N)C(C)C(=O)OC (centres unmarked) : 5.4
COCC(=O)N(c1c(C)ccc([N+](=O)[O-])c1C)C(C)C(=O)OC (centres unmarked) : 35.8
COCC(=O)N(c1c(C)cccc1[N+](=O)[O-])C(C)C(=O)OC (centres unmarked) : 12.3
CCOCC(=O)N(c1c(C)ccc([N+](=O)[O-])c1C)C(C)C(=O)OC (centres unmarked) : 41.8

Lookup: Return reported Multiple of Metalaxyl T50 (evaporation half-life); argument: COCC(=O)N(c1c(C)ccc([N+](=O)[O-])c1C)C(C)C(=O)OC(C)C (centres unmarked)
Found: 45.6
